tested on: SF-295; assay: NCI tumour cell line growth inhibition, 48 h
Active and inactive are the calls of the source. Rule as the data show it: active = GI50 up to about 1.1 µM and inactive = higher.
Consider the following compounds; for each one, report its GI50.

Below are some compounds; for each one, tell me its GI50.
1. COc1c(C)c(OCC=C(C)C)cc(CO)c1CO
2. C[C@]12CCCC(=O)C1(O)C[C@H](C(=O)O)CC2 (stereo partly specified)

1: 45.4 µM (inactive); 2: > 100 µM (inactive)

I have 2 compounds here; please give me GI50 for each one.
1. COC(=O)[C@H]1C=C[C@H](OC2OC(COC(C)=O)C(OC(C)=O)C(OC(C)=O)C2OC(C)=O)n2c(=O)n(-c3ccccc3)c(=O)n21 (stereo partly specified)
2. C=CCc1ccccc1C1CC2(C(=O)OC)OC1C(C(=O)OC)=C2C(=O)OC (stereo unspecified)

13.1 µM (inactive)
> 10 µM (inactive)

Parameter requested: GI50. Apply to each item below.
1. CC(=O)ON(OC(C)=O)c1ccc(C)cc1
2. c1ccc(C2N=NN(c3ccccc3)C2N2CCCCC2)cc1 (stereo unspecified)

> 100 µM (inactive)
33.8 µM (inactive)

Taken from ChEMBL document CHEMBL1201862.
